Assay: Cytotoxicity, inhibition of CEM/TK– cell proliferation
Assay type: cell-based
Details: human, CEM/TK– cells (CD4+ T-cells), read-out: toxicity CC50
assay-endpoint: CC50 (µM)
The answer is to be given in µM; state only the numeric part.

1) CCCCCCCCCC(=O)Oc1ccc(COP(=O)(OCc2ccc(OC(=O)CCCCCCCCC)cc2)OP(=O)(O)OP(=O)(O)OC[C@@H]2C=C[C@H](n3cc(C)c(=O)[nH]c3=O)O2)cc1 [1a, γ-(AB-C9; AB-C9)-d4TTP, reference compound] = 50

## Input So what's the measured CC50 for this one? CCCCCCCCCCCCCCCCOC(=O)Oc1ccc(COP(=O)(OCc2ccc(OC(=O)CCCC)cc2)OP(=O)(O)OP(=O)(O)OP(=O)(O)OC[C@@H]2C=C[C@H](n3cc(C)c(=O)[nH]c3=O)O2)cc1 (some centres unmarked)
## Output 50

## Input So what's the measured CC50 for this one? `CCCCCCCCCCCCCCCCCCP(=O)(O)OP(=O)(O)OP(=O)(O)OP(=O)(O)OC[C@@H]1C=C[C@H](n2cc(C)c(=O)[nH]c2=O)O1`
## Output 40.1

## Input So what's the measured CC50 for this one? CCCCCCCCCCCCCCCCCCP(=O)(OCC(CC)CCCC)OP(=O)(O)OP(=O)(O)OP(=O)(O)OC[C@@H]1C=C[C@H](n2cc(C)c(=O)[nH]c2=O)O1 (some centres unmarked)
## Output 50

## Input So what's the measured CC50 for this one? CCCCCCCCCCCCCCCCCCP(=O)(OCCCC)OP(=O)(O)OP(=O)(O)OP(=O)(O)OC[C@@H]1C=C[C@H](n2cc(C)c(=O)[nH]c2=O)O1 (some centres unmarked)
## Output 49.8

## Input So what's the measured CC50 for this one? `CCCCCCCCCCCCOP(=O)(OCCCCCCCCCCCC)OP(=O)(O)OP(=O)(O)OP(=O)(O)OC[C@@H]1C=C[C@H](n2cc(C)c(=O)[nH]c2=O)O1`
## Output 84.9

## Input So what's the measured CC50 for this one? CCCCCCCCCCCCCCCCCCOP(=O)(OCc1ccc(OC(=O)CCCC)cc1)OP(=O)(O)OP(=O)(O)OP(=O)(O)OC[C@@H]1C=C[C@H](n2cc(C)c(=O)[nH]c2=O)O1 (some centres unmarked)
## Output 48

## Input So what's the measured CC50 for this one? CCCCCCCCCCCCCCCCCCOP(=O)(OCCCC)OP(=O)(O)OP(=O)(O)OP(=O)(O)OC[C@@H]1C=C[C@H](n2cc(C)c(=O)[nH]c2=O)O1 (some centres unmarked)
## Output 46.8

## Input So what's the measured CC50 for this one? CCCCCCCCCCCCCCCCCCOP(=O)(OCC(CC)CCCC)OP(=O)(O)OP(=O)(O)OP(=O)(O)OC[C@@H]1C=C[C@H](n2cc(C)c(=O)[nH]c2=O)O1 (some centres unmarked)
## Output 48.9

Just for reference, paper PMC10895676 is where these values come from.
